// logP lookup, one value per entry
measurement.description: Log P of the drug
Assay type: physicochemical
assay.setup: octanol/water; method not stated

smiles.structure | logP
CCOC(=O)N1c2ccc(C(F)(F)F)cc2[C@@H](N(Cc2cc(C(F)(F)F)cc(C(F)(F)F)c2)C(=O)OC)C[C@H]1CC | ~7.55

What logP value was documented for this compound, CC[C@@H]1C[C@H](N(Cc2cc(C(F)(F)F)cc(C(F)(F)F)c2)C(C)=O)c2cc(C(F)(F)F)ccc2N1C(=O)OC(C)C ?
~7.55
